# Target under test: full-length beta-Catenin (Uniprot ID P35222) (Homo sapiens (Human)) (UniProt P35222)
# Procedure text: fluorescence polarization competition; peptide titrated against 10 nM full-length beta-catenin + 10 nM 5FAM-TCF4(10-53)
Starred links: 1 amine or outer side, 2 acyl side, 3 side chain; linkers in the order of their positions; H or OH if unused. Positions of bridges follow the written chain, without caps; N, C: chain ends. Non-standard residues stand in square brackets, D forms with d. Primed or numbered codes have the meaning given here. PyrS2″ = (S)-3-amino-1-((pent-4-en-1-yloxy)carbonyl)pyrrolidine-3-carboxylic acid (stapling residue), C=CCCCOC(=O)N1CC[C@@](N[*:1])(C(=O)[*:2])C1; B5(5) = 2,2-bis(4-pentenyl)glycine, 2-amino-2-(pent-4-en-1-yl)hept-6-enoic acid (stitching residue), C=CCCCC(CCCC=C)(N[*:1])C(=O)[*:2]; B5(3) = 2,2-bis(4-pentenyl)glycine (stitching residue), C=CCCCC(CCCC=C)(N[*:1])C(=O)[*:2]; Phe(3-CONH2) = NC(=O)c1cccc(C[C@H](N)C(=O)O)c1; Phe(2-Cl) = N[C@@H](Cc1ccccc1Cl)C(=O)O; Bta = N[C@@H](Cc1csc2ccccc12)C(=O)O; Lys(iPr) = CC(C)NCCCC[C@H](N)C(=O)O; αAllylPro = C=CC[C@@]1(C(=O)O)CCCN1; tBuAla = CC(C)(C)C[C@H](N)C(=O)O; 3Thi = N[C@@H](Cc1ccsc1)C(=O)O; Cha = N[C@@H](CC1CCCCC1)C(=O)O; S8 = C=CCCCCCC[C@](C)(N)C(=O)O; hSer = N[C@@H](CCO)C(=O)O
Catalogue of pIC50 readings, one per entry.
Worth noting: pIC50 values are minus log10 of concentrations stated in mol/L.

Below, 2 binders whose answers are already recorded.
Binder	pIC50
Ac-[αAllylPro]N[Cha][B5(5)]DQ[Lys(iPr)]AFL[PyrS2″][Phe(3-CONH2)][Bta][hSer]-NH2 (staple 1-4, 4-11) [I-2166]	5.80
Ac-[αAllylPro]D[tBuAla][B5(3)]DDAAFQ[PyrS2″][3Thi][Bta]HK-NH2 (staple 1-4, 4-11; also: earlier eluting staple isomer) [I-2229]	8.22

We next turn to a different binder, shown below.
Per the record, Ac-[αAllylPro]D[tBuAla][B5(3)]DEAAFT[S8][Phe(2-Cl)][Bta]T-NH2 (staple 1-4, 4-11) [I-1091] has pIC50 of 7.57
